SYSTEM: Peroxisome proliferator-activated receptor gamma (Homo sapiens) (UniProt P37231)
Sequence (whole entry): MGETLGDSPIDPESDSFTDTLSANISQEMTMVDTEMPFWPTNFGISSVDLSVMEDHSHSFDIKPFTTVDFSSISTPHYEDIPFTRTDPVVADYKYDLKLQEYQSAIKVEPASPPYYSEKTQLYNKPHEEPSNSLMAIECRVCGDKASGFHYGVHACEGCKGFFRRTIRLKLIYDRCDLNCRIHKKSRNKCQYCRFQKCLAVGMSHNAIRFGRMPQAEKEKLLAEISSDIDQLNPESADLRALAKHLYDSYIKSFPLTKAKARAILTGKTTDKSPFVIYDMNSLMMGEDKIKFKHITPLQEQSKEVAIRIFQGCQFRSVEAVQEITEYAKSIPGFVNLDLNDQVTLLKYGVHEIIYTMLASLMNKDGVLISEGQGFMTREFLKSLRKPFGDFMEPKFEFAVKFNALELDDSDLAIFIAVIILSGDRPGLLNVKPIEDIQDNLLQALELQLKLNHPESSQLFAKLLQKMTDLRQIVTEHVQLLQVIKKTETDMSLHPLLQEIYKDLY
ASSAY METHOD TEXT: Antagonist activity at PPAR-gamma (unknown origin) transfected in human HEK293 cells assessed as decrease in rosiglitazone-induced receptor transactivation at 10 uM by dual-luciferase reporter gene assay relative to control
Format: cell-based
TEST READOUT: inhibition (%)

INSERT INTO assay_data (input_smiles, test_readout, recorded_value) VALUES
  ('COc1ccc(-c2cccc(C(=O)Cc3cc(OC)c(CC=C(C)C)c(O)c3C(=O)O)c2)c(F)c1', 'inhibition', 16.4),
  ('COc1ccc(-c2cccc(C(=O)Cc3cc(OC)c(CC=C(C)C)c(O)c3C(=O)O)c2)cc1', 'inhibition', 20.8),
  ('COc1cc(O)c(C(=O)O)c(CC(=O)c2cccc(-c3cccc(C(F)(F)F)c3)c2)c1CC=C(C)C', 'inhibition', 39.6),
  ('COc1cc(O)c(C(=O)O)c(CC(=O)c2ccccc2)c1CC=C(C)C', 'inhibition', 39),
  ('COc1cc(CC(=O)c2cccc(-c3ccnc(Cl)c3)c2)c(C(=O)O)c(O)c1CC=C(C)C', 'inhibition', 11.1),
  ('COc1cc(CC(=O)c2cccc(-c3ccc(Cl)cc3)c2)c(C(=O)O)c(O)c1CC=C(C)C', 'inhibition', 26.6),
  ('COc1cc(CC(=O)c2cccc(-c3cccnc3)c2)c(C(=O)O)c(O)c1CC=C(C)C', 'inhibition', 31.7),
  ('CCc1ccc(-c2cccc(C(=O)Cc3cc(OC)c(CC=C(C)C)c(O)c3C(=O)O)c2)cc1', 'inhibition', 8.1),
  ('COc1cc(CC(=O)c2cccc(-c3cncnc3)c2)c(C(=O)O)c(O)c1CC=C(C)C', 'inhibition', 10.3);

---

SYSTEM: Peroxisome proliferator-activated receptor gamma (Homo sapiens)
ASSAY METHOD TEXT: Displacement of Fluormone Pan-PPAR Green from human recombinant GST-tagged PPARgamma LBD (201 to 475 residues) expressed in insect cells incubated for 2 hrs in dark by LantahScreen TR-FRET assay
pIC50: −log10 of the molar value.
TEST READOUT: pIC50

INSERT INTO results (input_smiles, system, test_readout, recorded_value) VALUES
  ('Cc1c(C)n(Cc2ccc(C(C)(C)C(=O)O)cc2)c2ccc(C(=O)N[C@@H](C)c3cccc(C4CC4)c3)cc12', 'Peroxisome proliferator-activated receptor gamma (Homo sapiens)', 'pIC50', 6.97);
